Cited source for all entries: paper PMC7059070

test system: non-malignant CHO-K1 cell line; assay: Cell viability, sulforhodamine B (SRB) assay, CHO-K1 cells; assay type: cell-based; settings: Cricetulus griseus, 48 h treatment, read-out: IC50 (mM) CHO-K1 cells, 48 h
measurement-name: IC50

C=CCSC[C@H](N)C(=O)OC = > 10 mM
C=CCSC[C@H](NC(=O)/C=C/c1ccc(O)c(O)c1)C(=O)OCCCCC = > 10 mM
C=CCSC[C@H](NC(=O)/C=C/c1ccc(O)c(O)c1)C(=O)OCC = > 10 mM
O=C(O)/C=C/c1ccc(O)c(O)c1 = > 10 mM
C=CCSC[C@H](N)C(=O)O [S-Allylcysteine, reference compound] = > 10 mM
C=CCSC[C@H](NC(=O)/C=C/c1ccc(O)c(O)c1)C(=O)OCCC = > 10 mM
C=CCSC[C@H](NC(=O)/C=C/c1ccc(O)c(O)c1)C(=O)OC = 0.18 mM
